Data origin: patent US5510332A

Tested system: binding of α4 β1 integrin to VCAM-1 (Homo sapiens, UniProt P05556+P13612)
Construct: endogenous in cells; host or cells: Ramos (human B-cell line) for endogenous α4β1; the VCAM-mouse IgG fusion was made in house, secreted from transfected COS cells and captured on goat anti-mouse IgG Dynal beads
Sequence (P13612 34-1032): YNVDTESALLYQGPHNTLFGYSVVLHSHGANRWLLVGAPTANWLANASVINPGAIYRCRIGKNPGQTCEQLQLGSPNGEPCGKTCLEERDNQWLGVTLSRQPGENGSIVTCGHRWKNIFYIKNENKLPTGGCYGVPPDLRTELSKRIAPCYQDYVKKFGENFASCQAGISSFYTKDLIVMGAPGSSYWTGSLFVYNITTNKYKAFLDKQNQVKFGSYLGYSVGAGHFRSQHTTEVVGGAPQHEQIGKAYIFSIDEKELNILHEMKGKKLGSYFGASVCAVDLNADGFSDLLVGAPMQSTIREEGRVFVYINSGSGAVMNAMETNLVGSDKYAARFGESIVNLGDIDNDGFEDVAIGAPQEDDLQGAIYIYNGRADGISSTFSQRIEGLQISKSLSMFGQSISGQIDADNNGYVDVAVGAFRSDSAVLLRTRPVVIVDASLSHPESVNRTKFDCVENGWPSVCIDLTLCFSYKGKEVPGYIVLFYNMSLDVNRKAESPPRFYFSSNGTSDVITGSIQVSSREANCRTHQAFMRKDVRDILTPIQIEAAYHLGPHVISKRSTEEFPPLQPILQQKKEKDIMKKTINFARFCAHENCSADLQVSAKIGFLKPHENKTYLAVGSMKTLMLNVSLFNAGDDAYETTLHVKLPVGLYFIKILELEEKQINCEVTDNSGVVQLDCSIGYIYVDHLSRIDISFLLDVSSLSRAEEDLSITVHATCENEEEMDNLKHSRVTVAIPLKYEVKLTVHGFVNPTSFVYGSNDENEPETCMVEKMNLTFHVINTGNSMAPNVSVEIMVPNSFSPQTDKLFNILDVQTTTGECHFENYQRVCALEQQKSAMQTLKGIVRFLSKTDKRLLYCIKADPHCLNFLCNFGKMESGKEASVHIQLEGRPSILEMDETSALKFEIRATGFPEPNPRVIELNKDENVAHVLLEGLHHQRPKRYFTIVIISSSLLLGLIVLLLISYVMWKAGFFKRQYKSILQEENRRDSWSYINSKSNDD
Sequence (P05556 21-798): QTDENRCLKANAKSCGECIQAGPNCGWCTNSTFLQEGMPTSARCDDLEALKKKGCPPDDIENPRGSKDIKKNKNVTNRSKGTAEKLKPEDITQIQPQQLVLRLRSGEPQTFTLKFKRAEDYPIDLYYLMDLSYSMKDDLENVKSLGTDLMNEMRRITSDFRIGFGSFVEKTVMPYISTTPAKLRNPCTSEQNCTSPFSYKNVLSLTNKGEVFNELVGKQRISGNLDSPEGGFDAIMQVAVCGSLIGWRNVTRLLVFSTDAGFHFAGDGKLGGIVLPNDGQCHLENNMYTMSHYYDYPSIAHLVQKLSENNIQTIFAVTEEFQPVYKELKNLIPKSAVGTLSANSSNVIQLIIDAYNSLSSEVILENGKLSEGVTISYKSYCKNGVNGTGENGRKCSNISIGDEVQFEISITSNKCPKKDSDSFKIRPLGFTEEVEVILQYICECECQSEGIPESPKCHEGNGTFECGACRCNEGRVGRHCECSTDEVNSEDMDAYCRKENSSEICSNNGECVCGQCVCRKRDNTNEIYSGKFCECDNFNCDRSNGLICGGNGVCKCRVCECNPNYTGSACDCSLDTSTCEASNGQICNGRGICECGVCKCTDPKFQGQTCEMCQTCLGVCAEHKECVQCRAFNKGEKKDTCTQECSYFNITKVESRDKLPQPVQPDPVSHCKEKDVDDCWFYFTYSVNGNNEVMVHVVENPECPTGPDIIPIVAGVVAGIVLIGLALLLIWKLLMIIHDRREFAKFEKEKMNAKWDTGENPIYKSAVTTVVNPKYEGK
Experimental protocol: Cell-protein assay: calcein-labelled Ramos cells binding to VCAM-mouse IgG fusion protein on magnetic beads
Assay type: cell-based
Condition details: independent cell-protein based assays
Where no end group is shown, it is not given here.
Endpoint: IC50 (µM)
Value expressed in µM; do not type the unit.

Prompt: Can you share its IC50? I mean this substance: GPEWLDVP-NH2 [SEQ ID NO:9, Gly-Pro-Glu-Trp-Leu-Asp-Val-Pro-amide]
Response: 30

* * *

The following substances are listed with their measured relative quantity of adhered cells in relationship to peptide SEQ ID NO:9 values.
Tested system: binding of the integrin α4 β1 to VCAM (Homo sapiens, UniProt P05556+P13612)
Construct: endogenous in cells; host or cells: Ramos (human B-cell line) for endogenous α4β1; CHO cells stably transfected with human VCAM cDNA for the counter-receptor
Sequence (P13612 34-1032): as the sequence (P13612 34-1032) above
Sequence (P05556 21-798): as the sequence (P05556 21-798) above
Experimental protocol: Cell-cell assay: 35S-labelled Ramos cells binding to VCAM expressing CHO cells
Format: cell-based
Condition details: single concentration at which SEQ ID NO:9 gives approximately 50% inhibition of adhesion; SEQ ID NO:9 = 1.00; >2.00 indicates little or no inhibition of VCAM-α4 β1 binding
Where no end group is shown, it is not given here.
// print number alone

Consider the following illustrative entries.
>>> observed("GPEWLPVP-NH2 [SEQ ID NO:9 D→P, Gly-Pro-Glu-Trp-Leu-Pro-Val-Pro-amide]")
2.19
>>> observed("GPEWLDGP-NH2 [SEQ ID NO:9 V→G]")
1.67
>>> observed("GPEWLDPP-NH2 [SEQ ID NO:9 V→P]")
2.45
>>> observed("GPYWLDVP-NH2 [SEQ ID NO:9 E→Y, Gly-Pro-Tyr-Trp-Leu-Asp-Val-Pro-amide]")
0.96

Turning now to a further substance:
Prompt: Can you share its relative quantity of adhered cells in relationship to peptide SEQ ID NO:9? I mean this substance: GPEWLDNP-NH2 [SEQ ID NO:9 V→N]
Response: 2.31

* * *

The following substances are listed with their measured relative quantity of adhered cells in relationship to peptide SEQ ID NO:9 values.
Tested system: binding of the integrin α4 β1 to VCAM (Homo sapiens, UniProt P05556+P13612)
Construct: endogenous in cells; host or cells: Ramos (human B-cell line) for endogenous α4β1; CHO cells stably transfected with human VCAM cDNA for the counter-receptor
Experimental protocol: Cell-cell assay: 35S-labelled Ramos cells binding to VCAM expressing CHO cells
Format: cell-based
Condition details: single concentration at which SEQ ID NO:9 gives approximately 50% inhibition of adhesion; SEQ ID NO:9 = 1.00; >2.00 indicates little or no inhibition of VCAM-α4 β1 binding
Where no end group is shown, it is not given here.
// print number alone

>>> observed("GPTWLDVP-NH2 [SEQ ID NO:9 E→T, Gly-Pro-Thr-Trp-Leu-Asp-Val-Pro-amide]")
0.98

Prompt: Can you share its relative quantity of adhered cells in relationship to peptide SEQ ID NO:9? I mean this substance: GPEWLDKP-NH2 [SEQ ID NO:9 V→K]
Response: 2.68

Prompt: Can you share its relative quantity of adhered cells in relationship to peptide SEQ ID NO:9? I mean this substance: GPEWLDSP-NH2 [SEQ ID NO:9 V→S]
Response: 1.54

Prompt: Can you share its relative quantity of adhered cells in relationship to peptide SEQ ID NO:9? I mean this substance: GPEWLDFP-NH2 [SEQ ID NO:9 V→F, Gly-Pro-Glu-Trp-Leu-Asp-Phe-Pro-amide]
Response: 1.13

Prompt: Can you share its relative quantity of adhered cells in relationship to peptide SEQ ID NO:9? I mean this substance: GPKWLDVP-NH2 [SEQ ID NO:9 E→K, Gly-Pro-Lys-Trp-Leu-Asp-Val-Pro-amide]
Response: 1.34

* * *

The following substances are listed with their measured relative quantity of adhered cells in relationship to peptide SEQ ID NO:9 values.
Tested system: binding of the integrin α4 β1 to VCAM (Homo sapiens, UniProt P05556+P13612)
Construct: endogenous in cells; host or cells: Ramos (human B-cell line) for endogenous α4β1; CHO cells stably transfected with human VCAM cDNA for the counter-receptor
Experimental protocol: Cell-cell assay: 35S-labelled Ramos cells binding to VCAM expressing CHO cells
Assay type: cell-based
Condition details: single concentration at which SEQ ID NO:9 gives approximately 50% inhibition of adhesion; SEQ ID NO:9 = 1.00; >2.00 indicates little or no inhibition of VCAM-α4 β1 binding
Where no end group is shown, it is not given here.
// print number alone

Consider the following illustrative entries.
>>> observed("GPMWLDVP-NH2 [SEQ ID NO:9 E→M, Gly-Pro-Met-Trp-Leu-Asp-Val-Pro-amide]")
1.42
>>> observed("GPEWLRVP-NH2 [SEQ ID NO:9 D→R, Gly-Pro-Glu-Trp-Leu-Arg-Val-Pro-amide]")
2.14
>>> observed("GPEWLDQP-NH2 [SEQ ID NO:9 V→Q]")
1.97
>>> observed("GPCWLDVP-NH2 [SEQ ID NO:9 E→C, Gly-Pro-Cys-Trp-Leu-Asp-Val-Pro-amide]")
1.49
>>> observed("GPEWLCVP-NH2 [SEQ ID NO:9 D→C, Gly-Pro-Glu-Trp-Leu-Cys-Val-Pro-amide]")
1.78
>>> observed("GPEWLKVP-NH2 [SEQ ID NO:9 D→K, Gly-Pro-Glu-Trp-Leu-Lys-Val-Pro-amide]")
1.74
>>> observed("GPGWLDVP-NH2 [SEQ ID NO:9 E→G, Gly-Pro-Gly-Trp-Leu-Asp-Val-Pro-amide]")
1.33
>>> observed("GPECLDVP-NH2 [SEQ ID NO:9 W→C, Gly-Pro-Glu-Cys-Leu-Asp-Val-Pro-amide]")
1.45
>>> observed("GPFWLDVP-NH2 [SEQ ID NO:9 E→F, Gly-Pro-Phe-Trp-Leu-Asp-Val-Pro-amide]")
1.64

Prompt: Short answer please: relative quantity of adhered cells in relationship to peptide SEQ ID NO:9, binding of the integrin α4 β1 to VCAM (Homo sapiens, UniProt P05556+P13612), entry GPRWLDVP-NH2 [SEQ ID NO:9 E→R, Gly-Pro-Arg-Trp-Leu-Asp-Val-Pro-amide]
Response: 1.52
